Assay: chemical genetic growth profiling, strain panel (AID 1159580);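 further: tested at 20 µM; growth read once vehicle control cultures reached saturation at 30 °C; 1 = growth at the plate median or of vehicle wells; lower values mean less growth of the strain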
Conditions: S. cerevisiae deletion strains, growth OD, locus YLL026W, hits give low values
The whole screen tested about 5,500 compounds, of which about 2,000 (36%) were called active. Roughly 18% stayed inconclusive and do not appear here. Some of the results follow.
Quantity name: normalized growth
Give a plain numeric answer without units written out.

What value of normalized growth has been reported for the following compound? C[C@@H](N)[C@@H](O)c1ccccc1
0.995

What value of normalized growth has been reported for the following compound? NCC(CC(=O)O)c1ccc(Cl)cc1 (stereo not given)
1.01

What value of normalized growth has been reported for the following compound? CC[C@H](CCC(C)[C@H]1CCC2C3CCC4C[C@@H](O)CC[C@]4(C)C3CC[C@@]21C)C(C)C (stereo not given in full)
0.991

What value of normalized growth has been reported for the following compound? Cc1ncc([N+](=O)[O-])n1CC(C)O (stereo not given)
0.988

What value of normalized growth has been reported for the following compound? CC(CCC(=O)O)[C@H]1CCC2C3CC[C@@H]4C[C@H](O)CC[C@]4(C)C3C[C@H](O)[C@@]21C (stereo not given in full)
1

What value of normalized growth has been reported for the following compound? CCC(=O)Nc1ccc(Cl)c(Cl)c1
0.989

What value of normalized growth has been reported for the following compound? CC(CCC(=O)O)[C@H]1CCC2C3CC[C@@H]4C[C@H](O)CC[C@]4(C)C3CC[C@@]21C (stereo not given in full)
0.955

What value of normalized growth has been reported for the following compound? CC(C)CCCC(C)C1CCC2C3CC[C@H]4CCCC[C@]4(C)C3CC[C@]12C (stereo not given in full)
1.02

What value of normalized growth has been reported for the following compound? CC(CCC(=O)O)[C@H]1CCC2C3C[C@H](O)[C@@H]4C[C@H](O)CC[C@]4(C)C3CC[C@@]21C (stereo not given in full)
0.986

What value of normalized growth has been reported for the following compound? CN(C)CCOC(=O)C(c1ccccc1)C1(O)CCCC1 (stereo not given)
0.985

====

Task for the reader: assign each of the following molecules its reported normalized growth.
Experiment: chemical genetic growth profiling, strain panel (AID 1159580);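 further: tested at 20 µM; growth read once vehicle control cultures reached saturation at 30 °C; 1 = growth at the plate median or of vehicle wells; lower values mean less growth of the strain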
Conditions: S. cerevisiae deletion strains, growth OD, locus YPL051W, strain arl3, hits give low values
Hit rate of the full screen: of about 5,500 compounds, about 2,000 (36%) were called active. Inconclusive results (about 18%) are left out. This is one part of the list.
Give a plain numeric answer without units written out.

What value of normalized growth has been reported for the following molecule? O=C(O)CCCOc1ccc(Cl)cc1Cl
0.943

What value of normalized growth has been reported for the following molecule? CC(=O)OCC(=O)[C@@]1(O)[C@H](OC(C)=O)CC2C3CCC4=CC(=O)C=C[C@]4(C)[C@@]3(F)[C@@H](O)C[C@@]21C (stereo partly specified)
1.01

What value of normalized growth has been reported for the following molecule? CN(C)CCOC(=O)COc1ccc(Cl)cc1
0.986

What value of normalized growth has been reported for the following molecule? CN(C)CCOC(=O)C(c1ccccc1)C1(O)CCCC1 (stereo unspecified)
1.02

What value of normalized growth has been reported for the following molecule? NCC(CC(=O)O)c1ccc(Cl)cc1 (stereo unspecified)
0.999

What value of normalized growth has been reported for the following molecule? COC(=O)CCCOc1ccc(Cl)cc1Cl
0.972

====

Test: chemical genetic growth profiling, strain panel (AID 1159580);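 further: tested at 20 µM; growth read once vehicle control cultures reached saturation at 30 °C; 1 = growth at the plate median or of vehicle wells; lower values mean less growth of the strain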
Conditions: S. cerevisiae deletion strains, growth OD, locus YHR205W, strain SCH9
Hit rate of the full screen: of about 5,500 compounds, about 2,000 (36%) were called active. Not shown: some 18% with an inconclusive outcome. Rule as the data show it: active = normalized growth mostly below about 0.91 (no sharp cut-off); inconclusive = no clear call, values can overlap the other calls; inactive = mostly above about 0.92. The list shows a part of the results.
The reply should name one outcome from active, inactive

// outcome(item) with item = O=C1CSC(c2ccc(C(F)(F)F)cc2)N1c1ccc(C(F)(F)F)cc1 (stereo not given)
inactive

// outcome(item) with item = CSC(=NNc1ccccc1)NC(=O)c1c(Cl)cccc1Cl
inactive

// outcome(item) with item = CS(=O)(=O)c1sc(C(=O)Sc2ccc(Cl)cc2)c2c1C=CCC2
active

// outcome(item) with item = O=C1/C(=C/c2cccs2)COc2ccccc21
inactive

// outcome(item) with item = O=C(Nc1ccc(F)c(Cl)c1)c1ccccc1O
inactive

// outcome(item) with item = CC1C/C(=N/Nc2ccc(Br)cc2)c2cc(Cl)ccc2S1 (stereo not given)
active

// outcome(item) with item = COc1ccc(CC2CCC(=NOC(=O)c3c(Cl)cccc3Cl)CC2)cc1 (stereo not given)
inactive

// outcome(item) with item = COc1ccc(OC)c(-c2ccn[nH]2)c1OCc1ccccc1
inactive

// outcome(item) with item = N#Cc1ccc(NC(=O)Nc2cccc3ccccc23)cc1
inactive

// outcome(item) with item = O=C1/C(=C/c2ccc(C(F)(F)F)cc2)COc2ccccc21
inactive

// outcome(item) with item = Cc1c(S(=O)(=O)c2ccc(Cl)cc2)csc1C(=O)NNc1cccc(Cl)c1
inactive

// outcome(item) with item = O=C(Nc1ccc(Cl)cc1)O/N=C\c1ccn(-c2ccccc2)n1
active

// outcome(item) with item = O=C(Nc1cccc2ccccc12)c1ccccc1O
inactive

// outcome(item) with item = O=C(NNc1ccc(Cl)cc1)c1ccc(F)cc1F
inactive

// outcome(item) with item = CC1(C)c2ccccc2N(CCC(N)=O)C12C=Cc1c(ccc3ccccc13)O2 (stereo not given)
inactive

// outcome(item) with item = COc1cc(CC/C(C)=N/O)ccc1OCc1ccc(Cl)cc1Cl
inactive

// outcome(item) with item = COc1ccc(C(=O)NCc2csc3ccc(Cl)cc23)cc1OC
inactive

// outcome(item) with item = CC1C/C(=N/Nc2ccc(Br)cc2)c2cc(Cl)ccc2S1(=O)=O (stereo not given)
inactive

// outcome(item) with item = S=C(NNc1ccccc1)Nc1cc(Cl)ccc1Cl
inactive

// outcome(item) with item = O=[N+]([O-])c1ccc(-c2csc(Nc3ccncc3)n2)cc1
inactive

====

Experiment: chemical genetic growth profiling, strain panel (AID 1159580);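 further: tested at 20 µM; growth read once vehicle control cultures reached saturation at 30 °C; 1 = growth at the plate median or of vehicle wells; lower values mean less growth of the strain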
Settings: S. cerevisiae deletion strains, growth OD, locus YJL187C, strain SWE1
Screen size: about 5,500 compounds; about 2,000 (36%) were called active. Roughly 18% stayed inconclusive and do not appear here. No stated cut-off is given here; in the data, active means normalized growth mostly below about 0.91 (no sharp cut-off); inconclusive means no clear call, values can overlap the other calls; inactive means mostly above about 0.92. Some of the results follow.
The reply should name one outcome from 1 (yes) = active, 0 (no) = inactive

// outcome(item) with item = CCCC(CCC)C(=O)O
0 (no)

// outcome(item) with item = O=[N+]([O-])c1cccc2cn[nH]c12
0 (no)

// outcome(item) with item = C[C@@H]1CC2C3CCC4=CC(=O)C=C[C@]4(C)[C@@]3(F)[C@@H](O)C[C@]2(C)[C@H]1C(=O)CO (stereo not given in full)
0 (no)

// outcome(item) with item = C=C1C2=CC(=O)O[C@@H](c3ccoc3)[C@]2(C)CCC1[C@@]1(C)C=CC(=O)C(C)(C)[C@@H]1CC(=O)OC (stereo not given in full)
0 (no)

// outcome(item) with item = CCCC(C(=O)OCCN(CC)CC)(c1ccccc1)c1ccccc1
0 (no)

// outcome(item) with item = O=[N+]([O-])c1cccc2c(Br)[nH]nc12
0 (no)

// outcome(item) with item = Cc1ccc2c(c1)N(CCO)C(C)(C)CC2C (stereo not given)
0 (no)

// outcome(item) with item = O=C(O)CCCOc1ccc(Cl)cc1Cl
0 (no)

// outcome(item) with item = CN(C)N=Nc1nc[nH]c1C(N)=O
0 (no)

// outcome(item) with item = C=C1C2CC[C@@]3(C)[C@H](c4ccoc4)OC(=O)C[C@]13O[C@H]1CC(O)C(C)(C)C(CC(=O)OC)[C@@]21C (stereo not given in full)
0 (no)

// outcome(item) with item = COc1ccc(OCC(N)=O)cc1
0 (no)

// outcome(item) with item = CC(=O)N=c1sc(S(N)(=O)=O)nn1C
0 (no)

// outcome(item) with item = C/C=C/C(=O)N(CC)c1ccccc1C
0 (no)

// outcome(item) with item = C=Cc1c(C)c2[n-]c1=Cc1[n-]c(c(CC)c1C)C=c1[n-]c3c(c1C)C(=O)C(C(=O)[O-])C=3c1[n-]c(c(C)c1CCC(=O)[O-])C=2.[Cu] (stereo not given)
1 (yes)

// outcome(item) with item = O=C(O)c1ccccc1C(=O)Nc1ccc(S(=O)(=O)Nc2nccs2)cc1
0 (no)

// outcome(item) with item = Cc1cc(=O)oc2c(O)c(O)ccc12
0 (no)

// outcome(item) with item = NC(Cc1ccc(F)cc1)C(=O)O (stereo not given)
0 (no)

// outcome(item) with item = COc1c(Cl)ccc(Cl)c1C(=O)O
0 (no)

// outcome(item) with item = Nc1cc(-c2ccncc2)c[nH]c1=O
1 (yes)

// outcome(item) with item = CCOC(=O)[C@H](CCc1ccccc1)N[C@@H](C)C(=O)N1Cc2ccccc2C[C@H]1C(=O)O
0 (no)

// outcome(item) with item = COC(=O)CCCOc1ccc(Cl)cc1Cl
0 (no)

// outcome(item) with item = c1ccc2nc(N3CCNCC3)ccc2c1
0 (no)

// outcome(item) with item = COc1ccc(C(=O)C2CCNCC2)cc1
0 (no)

// outcome(item) with item = O=c1cc(-c2ccc(O)cc2)oc2cc(O)cc(O)c12
0 (no)

// outcome(item) with item = N[C@H](Cc1cc(I)c(Oc2ccc(O)c(I)c2)c(I)c1)C(=O)O
0 (no)

// outcome(item) with item = N#Cc1cccc(Cn2c(=O)oc3ccccc32)c1
0 (no)

// outcome(item) with item = CN(CCC(N)CC(=O)N[C@H]1C=CC(n2ccc(N)nc2=O)O[C@@H]1C(=O)O)C(=N)N (stereo not given in full)
1 (yes)

// outcome(item) with item = O=C(NCc1nc(-c2ccc(C(F)(F)F)cc2)no1)Nc1ccc(F)cc1F
0 (no)

// outcome(item) with item = COc1ccc(CNc2ccccc2-c2nc3ccccc3[nH]2)cc1
0 (no)

// outcome(item) with item = O=c1cc(-c2ccc(O)cc2)oc2cc(O)ccc12
0 (no)

// outcome(item) with item = O=C(Nc1ccccc1)Nc1ccc(C(F)(F)F)cc1Br
0 (no)

// outcome(item) with item = CC(=O)OCC(=O)[C@@]1(O)[C@H](OC(C)=O)CC2C3CCC4=CC(=O)C=C[C@]4(C)[C@@]3(F)[C@@H](O)C[C@@]21C (stereo not given in full)
0 (no)

// outcome(item) with item = NC(N)=O
0 (no)

// outcome(item) with item = CCC(=O)Nc1ccc(Cl)c(Cl)c1
0 (no)

// outcome(item) with item = CSC(=NC(=O)c1c(Cl)cccc1Cl)SC
1 (yes)

// outcome(item) with item = CN1CCN(C2=Nc3ccccc3Oc3ccc(Cl)cc32)CC1
0 (no)

// outcome(item) with item = FC(F)(F)c1cc(-n2c(CCc3nc(-c4ccc(Cl)cc4)no3)n[nH]c2=S)cc(C(F)(F)F)c1
0 (no)

// outcome(item) with item = COc1c2ccccc2nc2occc12
0 (no)

// outcome(item) with item = NS(=O)(=O)c1cc2c(cc1Cl)NC(C1CC3C=CC1C3)NS2(=O)=O (stereo not given)
0 (no)

// outcome(item) with item = O=C(O)CCC(=O)Nc1ccc(S(=O)(=O)Nc2nccs2)cc1
0 (no)
